- test system: Vascular endothelial growth factor receptor 2 (Homo sapiens)
- experiment description: Inhibition of human VEGFR2 expressed in Sf9 cells at 100 uM; values are per cent of control
reported metric: residual activity (%)
Give just the number in %; leave the unit off.

Requested field: residual activity. Item: COc1cc(C2=C(c3cn(C)c4ccccc34)C(=O)NC2=O)cc(OC)c1OC
0

Requested field: residual activity. Item: COc1ccc(C2=C(c3c[nH]c4ccccc34)C(=O)NC2=O)cc1OC
10

Requested field: residual activity. Item: COc1cc(C2=C(c3cc[nH]c3)C(=O)NC2=O)cc(OC)c1OC
16

Requested field: residual activity. Item: COc1ccc(C2=C(c3ccccc3)C(=O)NC2=O)cc1
101

Requested field: residual activity. Item: COc1cc2c3c(c4c5ccccc5n(C)c4c2c(OC)c1OC)C(=O)NC3=O
0

---

- test system: Vascular endothelial growth factor receptor 2 (Homo sapiens, UniProt P35968)
- Sequence (P35968 whole entry): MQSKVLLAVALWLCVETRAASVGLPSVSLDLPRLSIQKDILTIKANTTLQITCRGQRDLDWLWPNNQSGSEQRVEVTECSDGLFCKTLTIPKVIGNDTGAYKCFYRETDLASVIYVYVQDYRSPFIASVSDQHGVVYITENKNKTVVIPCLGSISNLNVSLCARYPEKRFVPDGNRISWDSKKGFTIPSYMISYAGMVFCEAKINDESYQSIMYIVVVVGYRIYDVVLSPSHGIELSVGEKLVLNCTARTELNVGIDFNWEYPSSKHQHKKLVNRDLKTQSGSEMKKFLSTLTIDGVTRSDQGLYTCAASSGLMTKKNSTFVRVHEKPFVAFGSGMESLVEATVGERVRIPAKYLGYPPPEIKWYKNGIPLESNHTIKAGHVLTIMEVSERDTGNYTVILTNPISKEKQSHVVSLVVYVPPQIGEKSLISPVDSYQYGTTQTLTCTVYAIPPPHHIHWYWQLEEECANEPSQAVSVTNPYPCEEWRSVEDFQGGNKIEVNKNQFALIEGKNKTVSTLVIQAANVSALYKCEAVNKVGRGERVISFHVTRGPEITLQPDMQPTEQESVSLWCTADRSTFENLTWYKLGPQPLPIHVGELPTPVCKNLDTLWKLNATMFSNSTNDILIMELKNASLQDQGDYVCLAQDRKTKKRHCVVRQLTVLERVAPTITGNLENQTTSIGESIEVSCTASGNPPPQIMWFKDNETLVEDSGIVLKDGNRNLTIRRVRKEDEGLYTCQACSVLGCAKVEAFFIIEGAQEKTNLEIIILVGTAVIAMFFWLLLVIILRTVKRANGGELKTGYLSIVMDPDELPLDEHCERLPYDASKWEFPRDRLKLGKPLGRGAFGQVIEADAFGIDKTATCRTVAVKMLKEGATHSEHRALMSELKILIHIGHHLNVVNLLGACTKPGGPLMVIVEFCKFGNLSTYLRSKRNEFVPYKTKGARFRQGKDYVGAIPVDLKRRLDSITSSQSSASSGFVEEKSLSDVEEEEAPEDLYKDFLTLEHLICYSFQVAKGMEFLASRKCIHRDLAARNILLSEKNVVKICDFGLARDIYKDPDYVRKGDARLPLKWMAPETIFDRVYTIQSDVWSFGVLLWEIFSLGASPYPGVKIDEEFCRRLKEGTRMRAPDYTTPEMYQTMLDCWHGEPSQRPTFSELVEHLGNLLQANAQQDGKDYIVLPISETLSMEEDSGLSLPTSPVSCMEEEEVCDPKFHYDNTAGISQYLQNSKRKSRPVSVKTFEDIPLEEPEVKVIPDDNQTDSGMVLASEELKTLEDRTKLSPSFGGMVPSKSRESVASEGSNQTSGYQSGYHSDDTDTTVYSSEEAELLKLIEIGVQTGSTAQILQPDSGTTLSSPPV
- experiment description: Inhibition of human VEGFR2 expressed in Sf9 cells at 10 uM; values are per cent of control
Consider the cut-off 20%. If the recorded residual activity is strictly smaller, the label is Criterion met; if not, the label is Criterion not met.

residual activity under 20%? Item: COc1cc(C2=C(c3cn(C)c4ccccc34)C(=O)NC2=O)cc(OC)c1OC
Criterion met

residual activity under 20%? Item: COc1cc(C2=C(c3c[nH]c4ccccc34)C(=O)NC2=O)cc(OC)c1OC [MALEIMIDE]
Criterion met

residual activity under 20%? Item: COc1ccc(C2=C(c3c[nH]c4ccccc34)C(=O)NC2=O)cc1
Criterion met

residual activity under 20%? Item: COc1ccc(C2=C(c3cc(OC)c(OC)c(OC)c3)C(=O)NC2=O)cc1O
Criterion met

residual activity under 20%? Item: COc1ccc(C2=C(c3c[nH]c4ccccc34)C(=O)NC2=O)cc1OC
Criterion met

residual activity under 20%? Item: O=C1NC(=O)C(c2c[nH]c3ccccc23)=C1c1ccccc1
Criterion not met

residual activity under 20%? Item: O=C1NC(=O)C(c2ccccc2)=C1c1ccccc1
Criterion not met

residual activity under 20%? Item: COc1ccc2[nH]c3c4c(OC)c(OC)c(OC)cc4c4c(c3c2c1)C(=O)NC4=O
Criterion not met

residual activity under 20%? Item: COc1cc2c3c(c4c5ccccc5[nH]c4c2c(OC)c1OC)C(=O)NC3=O
Criterion met

residual activity under 20%? Item: COc1ccc(C2=C(c3ccccc3)C(=O)NC2=O)cc1OC
Criterion not met

residual activity under 20%? Item: COc1cc(C2=C(c3c(C)[nH]c4ccccc34)C(=O)NC2=O)cc(OC)c1OC
Criterion met

residual activity under 20%? Item: O=C1NC(=O)C(c2c[nH]c3ccccc23)=C1c1ccc(Cl)cc1
Criterion not met

residual activity under 20%? Item: COc1ccc(C2=C(c3cc(OC)c(OC)c(OC)c3)C(=O)NC2=O)cc1
Criterion not met

residual activity under 20%? Item: COc1cc(C2=C(c3cc[nH]c3)C(=O)NC2=O)cc(OC)c1OC
Criterion met

residual activity under 20%? Item: COc1ccc2[nH]cc(C3=C(c4cc(OC)c(OC)c(OC)c4)C(=O)NC3=O)c2c1
Criterion met

residual activity under 20%? Item: COc1cc(C2=C(c3ccccc3)C(=O)NC2=O)cc(OC)c1OC
Criterion not met

residual activity under 20%? Item: O=C1NC(=O)c2c1c1ccccc1c1[nH]c3ccccc3c21
Criterion not met

residual activity under 20%? Item: COc1ccc(C2=C(c3ccccc3)C(=O)NC2=O)cc1
Criterion not met

residual activity under 20%? Item: O=C1NC(=O)C(c2c[nH]c3ccccc23)=C1c1cccc2ccccc12
Criterion not met

residual activity under 20%? Item: COc1cc(C2=C(c3cc4ccccc4[nH]3)C(=O)NC2=O)cc(OC)c1OC
Criterion not met

residual activity under 20%? Item: COc1ccc(C2=C(c3ccc(OC)cc3)C(=O)NC2=O)cc1
Criterion not met

residual activity under 20%? Item: COc1cc(C2=C(c3c(-c4ccccc4)[nH]c4ccccc34)C(=O)NC2=O)cc(OC)c1OC
Criterion not met

residual activity under 20%? Item: COc1cc2c3c(c4c5ccccc5n(C)c4c2c(OC)c1OC)C(=O)NC3=O
Criterion met
